- experimental.details: Caco-2 cell monolayer bidirectional permeability
- Format: in vitro ADME
- condition.description: human, Caco-2, pH 7.4; Papp (BL-AP)/Papp (AP-BL)
endpoint.name: efflux ratio at 120 min, 50 µM

* O=c1cc(-c2ccc(O)cc2)oc2cc(O)cc(O)c12 [Apigenin, 4′,5,7-trihydroxyflavone] | 0.51

----------
- experimental.details: Caco-2 cell monolayer bidirectional permeability
- Type: in vitro ADME
- condition.description: human, Caco-2; basolateral-to-apical, 50 µM, HBSS pH 7.4, 120 min; mean of 6 replicates ± SD
endpoint.name: Papp B→A at 120 min, 50 µM (nm/s)

- O=c1cc(-c2ccc(O)cc2)oc2cc(O)cc(O)c12 [Apigenin, 4′,5,7-trihydroxyflavone]: 93

----------
- experimental.details: Caco-2 cell monolayer bidirectional permeability
- Type: in vitro ADME
- condition.description: human, pH 7.4; Caco-2 cell model; read-out: apparent permeability (Papp)
- Protocol: The cells were seeded into 6-well inserts with a polyethylene terephthalate (PET) membrane (pore size of 0.4 µm) (BD Falcon) at a density of 1.0 × 10^5 cells. Cell culture was maintained at 37 °C under 90% humidity and 5% CO2. […] To check the integrity of each cell monolayer, the transepithelial electrical resistance (TEER) was measured before and after the experiments with an epithelial voltohmmeter (Millicell-ERS®). […]
endpoint.name: Papp at 120 min, 50 µM (×10⁻⁶ cm/s)

• O=c1cc(-c2ccc(O)cc2)oc2cc(O)cc(O)c12 [Apigenin, 4′,5,7-trihydroxyflavone] = 18.1

----------
- experimental.details: Caco-2 cell monolayer bidirectional permeability
- Assay type: in vitro ADME
- condition.description: human, Caco-2; apical-to-basolateral, 50 µM, HBSS pH 7.4, 120 min; mean of 6 replicates ± SD
endpoint.name: Papp A→B at 120 min, 50 µM (×10⁻⁶ cm/s)

- O=c1cc(-c2ccc(O)cc2)oc2cc(O)cc(O)c12 [Apigenin, 4′,5,7-trihydroxyflavone]: 18.1
